experimental system: Polyclonal antibody ab6982 (Abcam)
experimental details: cyclic peptide microarray, hexon peptides
quantity name: log10 rank of binding signal (log10 of the value in rank)
Hey, these are logged values: log10 of rank of binding signal, rank being the unit before logging.

substance	log10 rank of binding signal
INLEEED (peptide)	1.51
VDEQAEQ (peptide)	1.30
YSFFRNF (peptide)	2.02
NLEEEDD (peptide)	1.81
IGYQGFY (peptide)	2.13

Items follow; give log10 rank of binding signal for each.
1. EEDDDNE (peptide)
2. EDEVDEQ (peptide)
3. ALEINLE (peptide)
4. EINLEEE (peptide)

[2.03, 2.10, 1.52, 0.78]
